- TGT: T1, CD3 on human T cells (H9 cells, ATCC HTB-176) (human)
- T1 construct: whole, on cells; The target is printed as 'human T cells'
- METHOD DESCRIPTION: flow cytometry on H9 cells, 1 µg antibody per 2x10^5 cells in 100 µl, PE anti-human IgG detection
- Procedure: The resultant was stored for 25 minutes in the dark at 4° C. Subsequently, treatment with 3 ml of FACS buffer was performed, and centrifugation was performed at 2,000 rpm for 3 minutes. Then, the supernatant was discarded. Next, 100 μl FACS buffer containing 1 μg of phycoerythrin (PE)-conjugated human IgG antibody was used to treat the cells, and the resultant was stored for 25 minutes in the dark at 4° C. […]
ATTRIBUTE MEASURED: Mean : PE-A

{"columns": ["BINDER", "ATTRIBUTE MEASURED", "RESULT VALUE"],
 "data": [
  ["H15 (antibody, human IgG1, lambda, L234A L235A, V domains shown, humanized SP34 IgG1, lambda) VH: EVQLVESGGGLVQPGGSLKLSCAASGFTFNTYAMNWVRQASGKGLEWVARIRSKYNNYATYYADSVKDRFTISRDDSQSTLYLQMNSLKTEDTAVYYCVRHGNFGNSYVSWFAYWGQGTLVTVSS VL: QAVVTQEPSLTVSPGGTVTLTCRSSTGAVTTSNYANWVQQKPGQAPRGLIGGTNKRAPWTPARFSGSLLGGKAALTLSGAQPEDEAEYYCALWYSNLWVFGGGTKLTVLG", "Mean : PE-A", 9620],
  ["F16 (antibody, human IgG1, lambda, L234A L235A, V domains shown, humanized SP34 IgG1, lambda) VH: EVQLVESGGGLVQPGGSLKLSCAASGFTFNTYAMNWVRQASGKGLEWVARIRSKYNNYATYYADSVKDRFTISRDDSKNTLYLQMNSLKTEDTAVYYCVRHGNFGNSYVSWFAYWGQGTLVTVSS VL: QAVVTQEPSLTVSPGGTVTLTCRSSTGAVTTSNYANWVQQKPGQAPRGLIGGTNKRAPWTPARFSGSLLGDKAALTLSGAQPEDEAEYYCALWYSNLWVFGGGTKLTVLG", "Mean : PE-A", 9530],
  ["B15 (antibody, human IgG1, lambda, L234A L235A, V domains shown, humanized SP34 IgG1, lambda) VH: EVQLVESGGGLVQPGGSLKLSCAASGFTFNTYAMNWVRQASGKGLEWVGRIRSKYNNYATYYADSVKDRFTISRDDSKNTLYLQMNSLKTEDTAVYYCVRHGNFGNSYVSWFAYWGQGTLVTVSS VL: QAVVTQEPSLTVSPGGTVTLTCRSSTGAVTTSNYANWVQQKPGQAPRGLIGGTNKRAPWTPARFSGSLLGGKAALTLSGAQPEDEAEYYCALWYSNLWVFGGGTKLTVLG", "Mean : PE-A", 22900]
]}
